Biological target: histone deacetylase, subtype 1 (HDAC1) (Homo sapiens)
Construct: Flag; made in house
Assay: HDAC1-Flag assay (in vitro deacetylation assay)
Format: biochemical
Settings: Table 1, benzothiophene backbone; concentration for 50% inhibition of deacetylation; substrate at Km; unit inferred, text gives nm; read-out: HDAC Inhibition
This section presents compounds with their documented pIC50 values.
Quick note: pIC50 means taking -log10 of the concentration in moles per liter.

The cases that follow already have their pIC50 on record.
COMPOUND | ENDPOINT_NAME | READOUT_VALUE
O=C(CN1CCOCC1)Nc1ccc2cc(C(=O)NO)sc2c1 [Compound 116] | pIC50 | 7.08
COc1cccc(N2CCN(CC(=O)Nc3ccc4cc(C(=O)NO)sc4c3)CC2)c1 [Compound 100] | pIC50 | 7.35
O=C(NCc1ccccc1)Nc1ccc2sc(C(=O)NO)cc2c1 [Compound 40] | pIC50 | 7.14
CC(C(=O)Nc1ccc2cc(C(=O)NO)sc2c1)c1ccccc1 (stereo not shown) [Compound 123] | pIC50 | 7.74
O=C(NO)c1cc2cc(C(F)(F)F)ccc2s1 [Compound 2] | pIC50 | 6.22
O=C(Nc1ccc2sc(C(=O)NO)cc2c1)c1cccnc1 [Compound 37] | pIC50 | 6.80
O=C(NO)c1cc2ccc(NC(=O)C3(c4ccc(Cl)cc4)CCC3)cc2s1 [Compound 127] | pIC50 | 6.94
CN(C(=O)Cc1ccccc1)c1ccc2cc(C(=O)NO)sc2c1 [Compound 106] | pIC50 | 7.13

Look up pIC50: O=C(Cc1cccc(F)c1)Nc1ccc2cc(C(=O)NO)sc2c1 [Compound 50]
7.85

Lookup O=C(NC(Cc1ccccc1)c1ccccc1)c1ccc2cc(C(=O)NO)sc2c1 (stereo not shown) [Compound 131]
6.65

###

Target: histone deacetylase, subtype 1 (HDAC1) (Homo sapiens)
Construct: Flag; made in house
Test: HDAC1-Flag assay (in vitro deacetylation assay)
Format: biochemical
Conditions: Table 2, thiophene backbone; concentration for 50% inhibition of deacetylation; substrate at Km; unit inferred, text gives nm; read-out: HDAC Inhibition
ENDPOINT_NAME: IC50
Dear colleague, please send the value followed by its unit.

Consider the worked cases shown below.
COMPOUND | IC50
O=C(NO)c1ccc(NC(=O)c2cccc3ccccc23)s1 [Compound 57] | 363 nM
O=C(NO)c1ccc(-c2cccc(CN(CCCc3ccccc3)Cc3ccnc4ccccc34)c2)s1 [Compound 75] | 920 nM
O=C(NO)c1ccc(-c2cccc(CN(Cc3ccccc3)Cc3ccnc4ccccc34)c2)s1 [Compound 71] | 461 nM

Would you kindly look at the next entry?
API: value(readout= IC50, system= histone deacetylase, subtype 1 (HDAC1) (Homo sapiens), query= O=C(NO)c1ccc(-c2cccc(CN(Cc3ccccc3)Cc3cnc4ccccc4c3)c2)s1 [Compound 70] )
399 nM

###

// reported pIC50 for each item listed
Biological target: histone deacetylase, subtype 1 (HDAC1) (Homo sapiens)
Construct: Flag; made in house
Assay: HDAC1-Flag assay (in vitro deacetylation assay)
Format: biochemical
Settings: Table 1, benzothiophene backbone; concentration for 50% inhibition of deacetylation; substrate at Km; unit inferred, text gives nm; read-out: HDAC Inhibition
Procedure: Novel compounds were tested for their ability to inhibit histone deacetylase, subtype 1 (HDAC1) using an in vitro deacetylation assay. The enzyme source for this assay was an epitope-tagged human HDAC1 complex immuno-purified from stably expressing mammalian cells. The substrate consisted of a commercial product containing an acetylated lysine side chain (BIOMOL Research Laboratories, Inc., Plymouth Meeting, Pa.). […]
Answer as the number alone; pIC50 is minus log10 of concentration in mol/L.

MOLECULE | pIC50
O=C(NO)c1cc2cc(NC(=O)c3cccc4ccccc34)ccc2s1 [Compound 25] | 6.85
O=C(NCCc1cc2ccccc2[nH]1)c1ccc2cc(C(=O)NO)sc2c1 [Compound 128] | 6.84
CC(C)C(=O)Nc1ccc2cc(C(=O)NO)sc2c1 [Compound 9] | 6.81
O=C(NO)c1cc2cc([N+](=O)O)ccc2s1 [Compound 22] | 5.76
Nc1ccccc1NC(=O)c1cc2ccccc2s1 [Compound 103] | 5.74
O=C(NCc1nc2ccccc2[nH]1)c1ccc2cc(C(=O)NO)sc2c1 [Compound 133] | 7.52
O=C(CN1CCN(c2ncccn2)CC1)Nc1ccc2cc(C(=O)NO)sc2c1 [Compound 101] | 7.23
COc1ccccc1N1CCN(CC(=O)Nc2ccc3cc(C(=O)NO)sc3c2)CC1 [Compound 107] | 7.10

Suppose we examine the molecule O=C(NO)c1cc2cc(CNCc3ccc(Cl)cc3)ccc2s1 [Compound 153] ; what pIC50 value has been reported?
6.91

###

Biological target: histone deacetylase, subtype 1 (HDAC1) (Homo sapiens, UniProt Q13547)
Construct: Flag; made in house
Sequence (Q13547 whole entry): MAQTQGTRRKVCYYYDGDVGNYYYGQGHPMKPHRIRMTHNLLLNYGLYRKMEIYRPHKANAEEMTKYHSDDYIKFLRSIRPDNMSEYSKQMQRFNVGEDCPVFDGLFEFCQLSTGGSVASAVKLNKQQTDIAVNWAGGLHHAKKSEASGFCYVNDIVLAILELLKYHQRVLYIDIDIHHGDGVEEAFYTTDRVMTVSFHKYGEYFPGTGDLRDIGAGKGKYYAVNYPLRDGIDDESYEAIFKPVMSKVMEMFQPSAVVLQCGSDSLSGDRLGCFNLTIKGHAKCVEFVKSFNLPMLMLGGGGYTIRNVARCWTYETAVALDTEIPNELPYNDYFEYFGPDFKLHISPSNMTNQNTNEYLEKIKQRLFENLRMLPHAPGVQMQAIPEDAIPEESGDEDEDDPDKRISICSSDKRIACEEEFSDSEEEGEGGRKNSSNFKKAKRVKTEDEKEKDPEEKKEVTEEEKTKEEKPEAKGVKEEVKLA
Experiment: HDAC1-Flag assay (in vitro deacetylation assay)
Type: biochemical
Conditions: Table 2, thiophene backbone; concentration for 50% inhibition of deacetylation; substrate at Km; unit inferred, text gives nm; read-out: HDAC Inhibition
ENDPOINT_NAME: pIC50
Scale: pIC50 equals -log10([C]), with [C] in mol/L.

Example results:
SMILES_REPRESENTATION | pIC50
O=C(/C=C/c1ccc(C(=O)NO)s1)NCc1ccccc1 | 6.69
O=C(NO)c1ccc(-c2cccc(CN(CCCc3ccccc3)Cc3cnc4ccccc4c3)c2)s1 | 6.34

We next turn to a different molecule, shown below.
Request the reported pIC50 associated with `COc1cccc(-c2ccc(C(=O)NO)s2)c1`
6.35

###

Molecular target: histone deacetylase, subtype 1 (HDAC1) (Homo sapiens, UniProt Q13547)
Construct: Flag; made in house
Assay: HDAC1-Flag assay (in vitro deacetylation assay)
Type: biochemical
Conditions: Table 1, benzothiophene backbone; concentration for 50% inhibition of deacetylation; substrate at Km; unit inferred, text gives nm; read-out: HDAC Inhibition
ENDPOINT_NAME: IC50 (nM)
Note: unit nM is implicit; provide only the numeric part.

Given O=C(NC1CCc2ccccc21)c1ccc2sc(C(=O)NO)cc2c1 (stereo not drawn) , state its recorded IC50.
1360

Next molecule up: `O=C(Nc1ccc2sc(C(=O)NO)cc2c1)OCc1ccccc1`
119

Input `COc1cccc(CNCc2ccc3cc(C(=O)NO)sc3c2)c1`
55.5

###

Measured pIC50, listed per entry.
Molecular target: histone deacetylase, subtype 1 (HDAC1) (Homo sapiens, UniProt Q13547)
Construct: Flag; made in house
Experiment: HDAC1-Flag assay (in vitro deacetylation assay)
Type: biochemical
Conditions: Table 2, thiophene backbone; concentration for 50% inhibition of deacetylation; substrate at Km; unit inferred, text gives nm; read-out: HDAC Inhibition
Please keep in mind that pIC50 is minus log10 of the molar concentration; only the number is needed.

Observe how each entry below is paired with its result.
SMILES_REPRESENTATION | pIC50
O=C(CCc1ccc(C(=O)NO)s1)NCCCc1ccccc1 | 6.28
O=C(CCc1ccc(C(=O)NO)s1)Nc1nc2ccccc2s1 | 6.87
O=C(Cc1ccccc1)Nc1ccc(C(=O)NO)s1 | 7.20

Fill blank: measured pIC50 of the molecule `O=C(CCc1ccc(C(=O)NO)s1)NCC1CCCCC1` is ____.
5.84

Next molecule: `O=C(NO)c1ccc(-c2cccc(CN(CCc3ccccc3)Cc3ccnc4ccccc34)c2)s1`
6.15

Same thing, different molecule: `O=C(CCc1ccc(C(=O)NO)s1)NCCc1ccccc1`
6.16

###

Target: histone deacetylase, subtype 1 (HDAC1) (Homo sapiens)
Construct: Flag; made in house
Assay: HDAC1-Flag assay (in vitro deacetylation assay)
Type: biochemical
Conditions: Table 1, benzothiophene backbone; concentration for 50% inhibition of deacetylation; substrate at Km; unit inferred, text gives nm; read-out: HDAC Inhibition
Could you mark each record Condition met if its IC50 falls strictly under 200 nM, and Condition not met if it equals or exceeds it?

SMILES_REPRESENTATION | DISCRETE_LABEL
CCOC(=O)Nc1ccc2sc(C(=O)NO)cc2c1 | Condition not met
O=C(Nc1ccc2sc(C(=O)NO)cc2c1)c1ccccc1 | Condition met
O=C(NO)c1cc2cc(CNCCc3c[nH]c4ccccc34)ccc2s1 | Condition met
O=C(/C=C/c1ccccc1)Nc1ccc2sc(C(=O)NO)cc2c1 | Condition met
O=C(NCCc1ccccc1)c1ccc2sc(C(=O)NO)cc2c1 | Condition met
CC(C)(C(=O)Nc1ccc2cc(C(=O)NO)sc2c1)c1ccc(Cl)cc1 | Condition not met
O=C(NCCCc1ccccc1)c1ccc2sc(C(=O)NO)cc2c1 | Condition met
O=C(NO)c1cc2ccc(NS(=O)(=O)c3ccc(-c4ccccc4)cc3)cc2s1 | Condition met

Input `O=C(NO)c1cc2cc(CNCc3ccccn3)ccc2s1` ; condition: IC50 strictly below 200 nM. Does it hold?
Condition not met

# repeat for `O=C(Nc1nc(-c2ccccc2)cs1)c1ccc2cc(C(=O)NO)sc2c1`
Condition not met

Also, `O=C(Cc1ccc(F)cc1)Nc1ccc2sc(C(=O)NO)cc2c1` please.
Condition met
